All values here come from ChEMBL document CHEMBL2150976.

Tested on: PC-3
experimentNotes: Cytotoxicity against human PC3 cells expressing […] integrin assessed as cell survival after 72 hrs by SRB assay
Assay type: functional, cell-based
conditionLabel: PC-3, 72 h
property: IC50 (nM)
One number for each entry, in nM.

CCc1c2c(nc3ccc(O)cc13)-c1cc3c(c(=O)n1C2)COC(=O)[C@]3(O)CC [7-ETHYL-10-HYDROXYCAMPTOTHECIN]    2.6
CCc1c2c(nc3ccc(OC(=O)N4CCN(C(=O)c5ccc(COC(=O)N[C@@H](CCC(=O)N6CCN(c7cccc(NC8=NCCCN8)c7)CC6)C(=O)O)cc5)CC4)cc13)-c1cc3c(c(=O)n1C2)COC(=O)[C@]3(O)CC.Cl    3400
CC[C@@]1(O)C(=O)OCc2c1cc1n(c2=O)Cc2cc3cc(O)ccc3nc2-1 [HYDROXYCAMPTOTHECIN]    78

Go through the list and state IC50 for each entry.
1. CC[C@@]1(O)C(=O)OCc2c1cc1n(c2=O)Cc2c-1nc1ccc(O)cc1c2/C=N/OC(C)(C)C
2. CC[C@@]1(O)C(=O)OCc2c1cc1n(c2=O)Cc2cc3c(CN(C)C)c(O)ccc3nc2-1 [TOPOTECAN]

15
185
